# credit: patent US20230039851A1

# Tested target: T1, Human Serum Albumin (human, UniProt P02768 25-609)
# T1 construct: ELISA: albumin coated on plates; pull-down: endogenous albumin in normal human serum; also called HSA; Human SA
# T1 sequence (P02768 25-609 limits assumed): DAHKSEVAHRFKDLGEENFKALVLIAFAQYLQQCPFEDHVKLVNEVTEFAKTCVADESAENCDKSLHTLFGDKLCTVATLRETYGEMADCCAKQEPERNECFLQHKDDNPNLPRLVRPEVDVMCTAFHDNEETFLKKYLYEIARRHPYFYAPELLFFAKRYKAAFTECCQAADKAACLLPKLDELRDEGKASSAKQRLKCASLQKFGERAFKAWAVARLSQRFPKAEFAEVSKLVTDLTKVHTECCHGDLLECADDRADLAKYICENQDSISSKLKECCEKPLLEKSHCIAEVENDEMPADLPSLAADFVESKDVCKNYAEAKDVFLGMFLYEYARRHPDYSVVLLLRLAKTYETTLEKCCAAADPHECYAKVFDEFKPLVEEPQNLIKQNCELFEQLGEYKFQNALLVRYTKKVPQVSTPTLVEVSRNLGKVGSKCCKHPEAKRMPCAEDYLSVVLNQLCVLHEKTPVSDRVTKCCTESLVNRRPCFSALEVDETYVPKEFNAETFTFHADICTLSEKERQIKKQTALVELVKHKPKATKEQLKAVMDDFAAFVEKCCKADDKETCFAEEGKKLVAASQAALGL
# Run description: pull-down of endogenous albumin from human serum
Readout label: binding result

A10V, W37A (designed binder, Variant of B7; not shown: His tag: FN3 domains were purified as His-tagged proteins) MLPAPKNLVVSRVTEDSARLSWTAPDAAFDSFNIAYAEPGIGGEAIWLRVPGSERSYDLTGLKPGTEYKVWIHGVKGGASSPPLIARFTT : no binding
A10V, N33A (designed binder, Variant of B7; not shown: His tag: FN3 domains were purified as His-tagged proteins) MLPAPKNLVVSRVTEDSARLSWTAPDAAFDSFAIAYWEPGIGGEAIWLRVPGSERSYDLTGLKPGTEYKVWIHGVKGGASSPPLIARFTT : no binding
A10V, A79S (designed binder, Variant of B7; not shown: His tag: FN3 domains were purified as His-tagged proteins) MLPAPKNLVVSRVTEDSARLSWTAPDAAFDSFNIAYWEPGIGGEAIWLRVPGSERSYDLTGLKPGTEYKVWIHGVKGGSSSPPLIARFTT : no binding
